Values from patent US7989464B2

Each item that follows carries a reported IC50.
TEST_SYSTEM: hmGluR1 receptor (Homo sapiens)
Construct: expressed in transfected cells
Sequence (Q13255 19-1194): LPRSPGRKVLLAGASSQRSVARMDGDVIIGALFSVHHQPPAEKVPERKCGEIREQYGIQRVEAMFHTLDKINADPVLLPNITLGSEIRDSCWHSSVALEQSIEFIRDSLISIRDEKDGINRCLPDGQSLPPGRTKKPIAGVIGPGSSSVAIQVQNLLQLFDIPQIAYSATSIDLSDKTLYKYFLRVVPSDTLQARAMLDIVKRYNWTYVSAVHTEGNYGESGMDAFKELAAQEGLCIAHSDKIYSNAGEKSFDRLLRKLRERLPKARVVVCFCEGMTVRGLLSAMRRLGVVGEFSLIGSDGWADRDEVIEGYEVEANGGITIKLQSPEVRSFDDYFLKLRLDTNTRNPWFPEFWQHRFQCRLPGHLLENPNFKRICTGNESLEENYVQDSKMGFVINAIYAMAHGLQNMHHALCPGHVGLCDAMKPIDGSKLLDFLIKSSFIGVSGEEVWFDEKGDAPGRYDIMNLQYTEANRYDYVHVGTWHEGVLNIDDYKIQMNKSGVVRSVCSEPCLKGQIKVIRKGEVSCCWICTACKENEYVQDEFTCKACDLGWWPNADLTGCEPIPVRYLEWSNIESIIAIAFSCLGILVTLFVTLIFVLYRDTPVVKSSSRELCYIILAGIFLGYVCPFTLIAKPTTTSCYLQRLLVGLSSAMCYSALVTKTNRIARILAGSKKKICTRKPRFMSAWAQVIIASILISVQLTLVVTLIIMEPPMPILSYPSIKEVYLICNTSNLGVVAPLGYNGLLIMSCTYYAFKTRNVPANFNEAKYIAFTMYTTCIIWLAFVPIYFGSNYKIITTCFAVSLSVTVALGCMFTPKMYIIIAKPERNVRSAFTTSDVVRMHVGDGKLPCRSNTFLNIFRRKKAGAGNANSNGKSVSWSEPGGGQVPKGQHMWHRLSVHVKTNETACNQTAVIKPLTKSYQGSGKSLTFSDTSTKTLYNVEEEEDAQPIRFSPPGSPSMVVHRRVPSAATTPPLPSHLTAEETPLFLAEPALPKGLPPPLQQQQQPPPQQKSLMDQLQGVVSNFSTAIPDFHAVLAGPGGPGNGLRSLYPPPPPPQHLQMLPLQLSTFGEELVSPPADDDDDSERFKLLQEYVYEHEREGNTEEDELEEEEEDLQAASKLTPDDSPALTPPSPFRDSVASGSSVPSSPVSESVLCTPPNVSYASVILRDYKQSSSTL
TEST_SUMMARY: IC50 determination: intracellular calcium mobilization (FLIPR) upon Quisqualate stimulation in CHO cells stably expressing hmGluR1
Format: cell-based
CONDITION_NOTES: against Quisqualate 1 μM (EC80), FLIPR calcium mobilization, read-out: mGluR1 IC50
Write the number in nM without appending the unit.

Below, each entry is followed by its recorded IC50 result.
MOLECULE	RESULT_UNIT	NUMERIC_READOUT
CNc1ncnc2sc3c(=O)n(-c4ccc(OC)cc4F)cnc3c12 [95BI]	nM	28.3
C#CCN(C)c1ccnc2sc3c(=O)n(-c4ccc(Br)cc4)cnc3c12 [28DV]	nM	1.87
C=CCNc1ncnc2sc3c(=O)n(-c4ccc(Br)cc4)cnc3c12 [95BO]	nM	1.54

-- ask Output measured IC50 for this item: O=c1c2sc3nccc(NCCCO)c3c2ncn1-c1ccc(Cl)cc1 [28GD]
-- reply 0.77

-- ask Hello, please tell me recorded IC50 for this one: CN(C)c1ccnc2sc3c(=O)n(C4CCCCC4)cnc3c12 [7Q]
-- reply 0.35

-- ask Fill in IC50 for record Cc1ccc(-n2cnc3c(sc4ncc(I)c(N)c43)c2=O)cc1 [compound 175]
-- reply 0.76

-- ask State its IC50 for this molecule: C=CCNc1ncnc2sc3c(=O)n(-c4ccc(Cl)cc4)cnc3c12 [95BP]
-- reply 1.31
